# credit: the array DNA melting data of Ke et al.

Experiment: melting temperature; melt of duplexes
Conditions: sodium 0.0675 M; strand 1 µM
Response field label takes criterion met when Tm is strictly below 50 °C and criterion not met in all other cases.

[[record]]
substance = "CGACGTGCGTAATGTGCTG+CAGCACATTTTGCACGTCG ((((((((..(((((((((+)))))))))..))))))))"
label = "criterion not met"

[[record]]
substance = "CGACGTGCCTCATGTGCTG+CAGCACATCGTGCACGTCG ((((((((...((((((((+))))))))...))))))))"
label = "criterion met"

[[record]]
substance = "CGACGTGCTAAATGTGCTG+CAGCACATTGAGCACGTCG (((((((((.(((((((((+))))))))).)))))))))"
label = "criterion not met"

[[record]]
substance = "CGACGTGCACAATGTGCTG+CAGCACATCTGGCACGTCG ((((((((...((((((((+))))))))...))))))))"
label = "criterion met"


Next, consider the following substance.
hey, is Tm for CGACGTGCATGATGTGCTG+CAGCACATCCGGCACGTCG ((((((((..(((((((((+)))))))))..)))))))) lower than 50 °C or not?
criterion not met

====

The entries below come with measured Tm values attached.
Test: melting temperature; melt of duplexes
Conditions: sodium 0.0675 M; strand 1 µM
The reply should contain only the number, in °C.

Any idea what Tm was measured for CGACGTGCTCGATGTGCTG+CAGCACATGGGGCACGTCG ((((((((.(.((((((((+)))))))).).)))))))) ?
54.5

Any idea what Tm was measured for CGACGTGCCTGATGTGCTG+CAGCACATGTAGCACGTCG ((((((((...((((((((+))))))))...)))))))) ?
49.3

Any idea what Tm was measured for CGACGTGCGAGATGTGCTG+CAGCACATCTCGCACGTCG (((((((((((((((((((+))))))))))))))))))) ?
66.5

Any idea what Tm was measured for CGACGTGCCGTATGTGCTG+CAGCACATGGCGCACGTCG ((((((((...((((((((+))))))))...)))))))) ?
50.3

====

Test: melting temperature; UV melt of duplexes
Settings: sodium 0.22 M; strand 2 µM
value.type: Tm

[[record]]
substance = "AAAGTACATCAACATAGAGAATTGCATTTC+GAAATGCAATTCTCTATGTTGATGTACTTT ((((((((((((((((((((((((((((((+))))))))))))))))))))))))))))))"
result = "66.1 °C"

[[record]]
substance = "GTTCTATACTCTTGAAGTTGATTAC+GTAATCAACTTCAAGAGTATAGAAC (((((((((((((((((((((((((+)))))))))))))))))))))))))"
result = "60.6 °C"


// moving on: another record for Tm
Any idea what Tm was measured for AACCTGCAACATGGAGTTTTTGTCTCATGC+GCATGAGACAAAAACTCCATGTTGCAGGTT ((((((((((((((((((((((((((((((+)))))))))))))))))))))))))))))) ?
72.5 °C

====

Test: melting temperature; UV melt of duplexes
Conditions: sodium 0.62 M; strand 2 µM
Response field label takes T when Tm is strictly below 70 °C and F in all other cases.

[[record]]
substance = "TGATTCTACCTATGTGATTT+AAATCACATAGGTAGAATCA ((((((((((((((((((((+))))))))))))))))))))"
label = "T"


hey, is Tm for GCCAACTCCGTCGCCGTTCGTGCGC+GCGCACGAACGGCGACGGAGTTGGC (((((((((((((((((((((((((+))))))))))))))))))))))))) lower than 70 °C or not?
F

hey, is Tm for CCACTATACCATCTATGTAC+GTACATAGATGGTATAGTGG ((((((((((((((((((((+)))))))))))))))))))) lower than 70 °C or not?
T

hey, is Tm for TATTGAGAACAAGTGTCCGATTAGCAGAAA+TTTCTGCTAATCGGACACTTGTTCTCAATA ((((((((((((((((((((((((((((((+)))))))))))))))))))))))))))))) lower than 70 °C or not?
F

hey, is Tm for AACCTGCAACATGGAGTTTTTGTCTCATGC+GCATGAGACAAAAACTCCATGTTGCAGGTT ((((((((((((((((((((((((((((((+)))))))))))))))))))))))))))))) lower than 70 °C or not?
F

hey, is Tm for AGTCTGGTCTGGATCTGAGAACTTCAGGCT+AGCCTGAAGTTCTCAGATCCAGACCAGACT ((((((((((((((((((((((((((((((+)))))))))))))))))))))))))))))) lower than 70 °C or not?
F

hey, is Tm for ACGGGTCCCCGCACCGCACCGCCAG+CTGGCGGTGCGGTGCGGGGACCCGT (((((((((((((((((((((((((+))))))))))))))))))))))))) lower than 70 °C or not?
F

====

Test: melting temperature; melt of duplexes
Settings: sodium 0.0675 M; strand 1 µM
The entries below come with measured Tm values attached.
The reply should contain only the number, in °C.

Answered examples (3):
[[record]]
substance = "CGACGTGCGGCATGTGCTG+CAGCACATCAAGCACGTCG ((((((((...((((((((+))))))))...))))))))"
unit_abbrev = "°C"
result = 53.6

[[record]]
substance = "CGACGTGCCAGATGTGCTG+CAGCACATTATGCACGTCG ((((((((...((((((((+))))))))...))))))))"
unit_abbrev = "°C"
result = 50.5

[[record]]
substance = "CGACGTGCCGAATGTGCTG+CAGCACATGCTGCACGTCG ((((((((.(.((((((((+)))))))).).))))))))"
unit_abbrev = "°C"
result = 50.8


// moving on: another record for Tm
Any idea what Tm was measured for CGACGTGCAGAATGTGCTG+CAGCACATATAGCACGTCG ((((((((...((((((((+))))))))...)))))))) ?
50.4

====

The entries below come with measured Tm values attached.
Experiment: melting temperature; melt of duplexes
Details: sodium 0.0675 M; strand 1 µM
The reply should contain only the number, in °C.

Answered examples (5):
[[record]]
substance = "CGACGTGCTCGATGTGCTG+CAGCACATAGCGCACGTCG ((((((((.(.((((((((+)))))))).).))))))))"
unit_abbrev = "°C"
result = 51.6

[[record]]
substance = "CGACGTGCGCTATGTGCTG+CAGCACATCACGCACGTCG (((((((((..((((((((+))))))))..)))))))))"
unit_abbrev = "°C"
result = 53.3

[[record]]
substance = "CGACGTGCGCTATGTGCTG+CAGCACATACCGCACGTCG (((((((((.(((((((((+))))))))).)))))))))"
unit_abbrev = "°C"
result = 54.8

[[record]]
substance = "CGACGTGCTTGATGTGCTG+CAGCACATGGCGCACGTCG ((((((((...((((((((+))))))))...))))))))"
unit_abbrev = "°C"
result = 47.2

[[record]]
substance = "CGACGTGCTGAATGTGCTG+CAGCACATTTCGCACGTCG ((((((((..(((((((((+)))))))))..))))))))"
unit_abbrev = "°C"
result = 53.1


Any idea what Tm was measured for CGACGTGCGCCATGTGCTG+CAGCACATTCTGCACGTCG ((((((((...((((((((+))))))))...)))))))) ?
47.8

Any idea what Tm was measured for CGACGTGCGAAATGTGCTG+CAGCACATGCCGCACGTCG (((((((((..((((((((+))))))))..))))))))) ?
56

Any idea what Tm was measured for CGACGTGCGAAATGTGCTG+CAGCACATATTGCACGTCG ((((((((.(.((((((((+)))))))).).)))))))) ?
51.9

Any idea what Tm was measured for CGACGTGCTTCATGTGCTG+CAGCACATTATGCACGTCG ((((((((.(.((((((((+)))))))).).)))))))) ?
50.1

Any idea what Tm was measured for CGACGTGCGCTATGTGCTG+CAGCACATTTAGCACGTCG ((((((((...((((((((+))))))))...)))))))) ?
51.6

Any idea what Tm was measured for CGACGTGCTGAATGTGCTG+CAGCACATCATGCACGTCG ((((((((...((((((((+))))))))...)))))))) ?
53.1
